- Method Summary: Permeability assay, everted rat gut model
- Type: in vitro ADME, Wistar rats
- Settings: male, Wistar, rat, everted rat gut, jejunum, 100 μM, 37 °C, A-B; read-out: Papp Jejunum
Measured Papp at 120 min, 100 μM by item
Please respond with the number in ×10⁻⁶ cm/s and leave the unit unwritten.

CC1(C)S[C@@H]2[C@H](NC(=O)[C@H](N)c3ccc(O)cc3)C(=O)N2[C@H]1C(=O)O [Amoxicillin, amoxicillin, reference compound]; 10

Query compound follows.
Query :: Specify measured Papp at 120 min, 100 μM for CC(C)(Oc1ccc(Cl)cc1)C(=O)Nc1nnn[nH]1 [Compound 1] .
Result :: 16.2

* * *

- Method Summary: Bioavailability / pharmacokinetic study, oral and intravenous administration
- Format: in vivo, Wistar rats
- Settings: male, Wistar, rat, plasma, iv, 50 mg/kg, Compound 1, intravenous, 50 mg/kg, Wistar rat, mean; read-out: T1/2el (converted)
Value Kind: half-life (min)
Quick reminder: number only, in min, skip the unit.

Query :: Supply measured half-life of CC(C)(Oc1ccc(Cl)cc1)C(=O)Nc1nnn[nH]1 [Compound 1] in your reply.
Result :: 42.6

* * *

- Method Summary: Permeability assay, everted rat gut model
- Type: in vitro ADME, Wistar rats
- Settings: male, Wistar, rat, everted rat gut, duodenum, 100 μM, 37 °C, A-B; read-out: Papp Duodenum
Value Kind: Papp at 120 min, 100 μM (×10⁻⁶ cm/s)
Write the value in ×10⁻⁶ cm/s as a bare number.

CC1(C)S[C@@H]2[C@H](NC(=O)[C@H](N)c3ccc(O)cc3)C(=O)N2[C@H]1C(=O)O [Amoxicillin, amoxicillin, reference compound]; 8.52

Would you kindly look at the next entry?
Query :: Return the recorded Papp at 120 min, 100 μM value; entry: CC(C)(Oc1ccc(Cl)cc1)C(=O)Nc1nnn[nH]1 [Compound 1]
Result :: 8.73

* * *

- Method Summary: Bioavailability / pharmacokinetic study, oral and intravenous administration
- Format: in vivo, Wistar rats
- Settings: Compound 1, oral
Value Kind: average ABC0–α (µg·h/mL)
Enter your answer as a number in µg·h/mL; do not include the unit.

Query :: For the compound CC(C)(Oc1ccc(Cl)cc1)C(=O)Nc1nnn[nH]1 [Compound 1] , report average ABC0–α.
Result :: 2.58

* * *

- Method Summary: Bioavailability / pharmacokinetic study, oral and intravenous administration
- Format: in vivo, Wistar rats
- Settings: male, plasma; Compound 1, oral, 50 mg/kg, Wistar rat, mean
Value Kind: Cmax (ng/mL)
Answer with a number only, understood to be in ng/mL.

Query :: Answer with the recorded Cmax of `CC(C)(Oc1ccc(Cl)cc1)C(=O)Nc1nnn[nH]1` only.
Result :: 3570

* * *

- Method Summary: Bioavailability / pharmacokinetic study, oral and intravenous administration
- Assay type: in vivo, Wistar rats
- Settings: male, plasma; Compound 1, intravenous, 50 mg/kg, Wistar rat, mean
Value Kind: k el (s⁻¹)
The answer is to be given in s⁻¹; state only the numeric part.

Query :: Using the record for CC(C)(Oc1ccc(Cl)cc1)C(=O)Nc1nnn[nH]1 [Compound 1] , state its measured k el.
Result :: 0.000336

* * *

- Method Summary: Bioavailability / pharmacokinetic study, oral and intravenous administration
- Format: in vivo, Wistar rats
- Settings: male, plasma; Compound 1, oral vs intravenous, 50 mg/kg, Wistar rat, mean
Value Kind: bioavailability (%)
Enter your answer as a number in %; do not include the unit.

Query :: Write down bioavailability measured for item `CC(C)(Oc1ccc(Cl)cc1)C(=O)Nc1nnn[nH]1`
Result :: 10.4
